assay.target: T1, human Claudin18.2 (CLDN18.2), full length, on cells (human)
T1 construct: also called CLDN18.2-FL; HEK293-CLDN18.2 cells
method.summary: cellular ELISA on fixed HEK293-CLDN18.2 cells
binders and their reported EC50
Note: unit nM is implicit; provide only the numeric part.

# binder, unit, recorded.value
rows = [
    ("17CHI (antibody, V domains shown, Human-murine chimeric antibody with the constant region of human IgG1; also called chimeric antibody of C58B11E11) VH: EVQLQQSGPELVKPGASVKMSCKASGYTFTDYNMHWVKQSHGKSLEWIGYINPNNGGTSYNQKFKGKATLTVNKSSSTAYMELRSLTSEDSAVYYCARIYYGNSFAYWGQGTLVTVSA VL: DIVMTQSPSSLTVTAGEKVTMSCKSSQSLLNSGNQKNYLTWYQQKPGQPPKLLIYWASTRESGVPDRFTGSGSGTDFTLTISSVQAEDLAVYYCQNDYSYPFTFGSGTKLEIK", "nM", 2.44),
    ("1CHI (antibody, V domains shown, Human-murine chimeric antibody with the constant region of human IgG1; also called chimeric antibody of B4B10G3) VH: QIQLVQSGPELKKPGETVKISCKASGYTFTNYGMNWVKQAPGKGLKWMGWINTYTGEPTYADDFKGRFAFSLETSASTAYLQINNLKNEDMATYFCARDGQLGLRFAYWGQGTLVTVSA VL: NIMMTQSPSSLAVSAGEKVTMSCKSSQSVLYSSNQKNYLAWYQQKPGQSPKLLIYWASTRESGVPDRFTGSGSGTDFTLTISSVQAEDLAVYYCHQYLSSRTFGGGTKLEIK", "nM", 0.55),
    ("19CHI (antibody, V domains shown, Human-murine chimeric antibody with the constant region of human IgG1; also called chimeric antibody of C42B12D10) VH: QVQLQQSGAELVKPGASVKMSCKASGYTFTTYPIEWMKQNHGKSLEWIGNFHPYNDDTKYNEKFKGKATLTVEKSSSTVYLELSRLTSDDSAVYYCARRGYGSSYAMDYWGQGTSVTVSS VL: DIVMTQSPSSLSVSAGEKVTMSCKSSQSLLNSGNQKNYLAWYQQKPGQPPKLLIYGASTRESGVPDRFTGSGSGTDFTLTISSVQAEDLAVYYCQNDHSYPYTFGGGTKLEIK", "nM", 29.9),
]

Here is another binder to look at.
Short answer for 3CHI (antibody, V domains shown, Human-murine chimeric antibody with the constant region of human IgG1; also called chimeric antibody of S5H3B6; original 3CHI antibody) VH: EVKLVESGGGLVQPGGSLKLSCAASGFTFSDYGMAWVRQAPRKGPEWVAFISNLAYSIYYADTVTGRFTISRENAKNTLYLEMSSLRSEDTAMYYCARLGYGNSFAYWGQGTLVTVSA VL: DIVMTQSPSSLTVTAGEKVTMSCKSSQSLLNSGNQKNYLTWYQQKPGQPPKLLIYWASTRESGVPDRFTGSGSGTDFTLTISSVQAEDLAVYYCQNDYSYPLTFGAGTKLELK : EC50 was 0.08
